Target: S. pyogenes SKKanGAS, kanamycin survival, BacTiterGlo, 6 h
Assay: S. pyogenes SKKanGAS kanamycin growth inhibitors – SKKanGAS strain, luminescence, dose confirmation, streptokinase promoter inhibitor project, dose response (AID 1902);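 also: lower survival reflects blocked streptokinase promoter driving kanamycin resistance gene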
Active and inactive are the calls of the source.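 The calls were made as follows: active = EC50 no more than a set limit of log units above the highest dose; inactive = the rest.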
Outcomes: label 1 for active, label 0 for inactive

compound=CCn1c(=S)sc2c(=O)[nH]c(SCC(=O)Nc3cc(OC)ccc3OC)nc21 assigned_label="label 1"
compound=CC(=O)Oc1ccc(/C=N/NS(=O)(=O)c2ccccc2)cc1 assigned_label="label 0"
compound=O=C(CSc1nc(Nc2ccccc2)nc(N2CCOCC2)n1)Nc1cc(Cl)ccc1O assigned_label="label 1"
compound=N#C/C(=C(/O)CCl)c1nc2c(s1)CCc1ccccc1-2 assigned_label="label 1"
compound="CCn1cc(Cl)c(C(=O)N2N=C(c3ccc4ccccc4c3)CC2c2ccccc2O)n1 (stereo unspecified)" assigned_label="label 1"
compound=Cc1cc(/C=C2\SC(=S)NC2=O)c(C)n1-c1ccc(O)cc1 assigned_label="label 1"
compound="COc1cccc(C2C3=C(N=c4s/c(=C\\c5cccc(O)c5)c(=O)n42)c2ccccc2CC3)c1OC (stereo unspecified)" assigned_label="label 1"
compound=N[C@@H](C(=O)N[C@@H]1C(=O)N2C(C(=O)O)=C(Cl)CS[C@H]12)c1ccccc1 assigned_label="label 1"
compound=COc1ccc(Sc2ccc(NC(=O)c3ccccc3Cl)cc2C#N)cc1 assigned_label="label 1"
compound=O=c1[nH]c(NNC(=S)NC2CCCCC2)nc2c1C1(CCCC1)Cc1ccccc1-2 assigned_label="label 1"
compound=CC(C)C(=O)Nc1ccc(C(=O)NNC(=S)NC(=O)c2cccs2)cc1 assigned_label="label 1"
compound=COc1ccc(NC(=O)c2c[nH]n3c(=O)cc(C4CCN(C(=O)OC(C)(C)C)CC4)nc23)cc1Cl assigned_label="label 1"
compound=CC(C)C[C@H](NC(=O)c1nc[nH]c1C(=O)NC1CCN(C(=O)OC(C)(C)C)CC1)C(=O)OCc1ccccc1 assigned_label="label 1"
compound="CNC(=S)N1CCN(c2c(F)cc3c(=O)c(C(=O)O)cn(C4CC4)c3c2OC)CC1C (stereo unspecified)" assigned_label="label 1"
compound="COc1ccc(NC2=NCC(Cc3ccc(Br)cc3)S2)cc1 (stereo unspecified)" assigned_label="label 1"
compound=COc1ccc(-c2cc3nc4ccccc4n3c(N)c2C#N)cc1 assigned_label="label 1"
compound=C=CCSc1nsc(NC(=O)Nc2ccc(F)cc2)n1 assigned_label="label 1"
compound=Cc1cccc(C(=O)Nc2scc(-c3ccc(Br)cc3)c2C(=O)O)c1 assigned_label="label 1"
compound="CC(CNC(=S)Nc1cc(F)cc(F)c1)CSc1ccc(Cl)cc1 (stereo unspecified)" assigned_label="label 1"
compound=Cc1ccc(C(C)C)c(OCc2ccc(C(=O)N/N=C/c3ccc(O)cc3O)cc2)c1 assigned_label="label 1"
compound=CCCOC(=O)c1ccc(Oc2cn[nH]c2-c2ccc(OC)cc2O)cc1 assigned_label="label 1"

Recorded values, source PubChem BioAssay AID1902.
